Tested on: Kocuria rhizophila
experiment-summary: Antibacterial activity against Sarcina luteus ATCC 9341 assessed as growth inhibition after 24 hrs by broth microdilution assay
Type: functional
experimental-setup: DC2201, 24 h
readout-label: MIC (µg/mL)
Report the value in µg/mL with no unit label.

Query block: Please supply the value of reported MIC for the item `Cc1ccc(C(=O)[C@H]2C[C@H](C(=O)OCC(F)(F)F)[C@@H]3C=CC=NN23)cc1`
Result block: 110

Query block: Please look at this molecule and report its MIC: `O=C(N[C@H](CO)[C@H](O)c1ccc([N+](=O)[O-])cc1)C(Cl)Cl`
Result block: 0.25

Query block: Provide only the value of recorded MIC for `CCOC(=O)c1c(C(F)(F)F)c2cccnn2c1C(=O)c1ccc(C)cc1`
Result block: 100

Query block: Quickly give me recorded MIC for `CCOC(=O)[C@H]1[C@H](C(F)(F)F)[C@@H]2C=CC=NN2[C@H]1C(=O)c1ccc(C)cc1`
Result block: 90
